Kd: recorded values
- test-target: BACE (recombinant human BACE catalytic domain, expressed in CHO cells as BACE-T-IgG, IgG1 removed with thrombin) (human) (UniProt P56817)
- Sequence (P56817 43-460 limits assumed, form in doubt): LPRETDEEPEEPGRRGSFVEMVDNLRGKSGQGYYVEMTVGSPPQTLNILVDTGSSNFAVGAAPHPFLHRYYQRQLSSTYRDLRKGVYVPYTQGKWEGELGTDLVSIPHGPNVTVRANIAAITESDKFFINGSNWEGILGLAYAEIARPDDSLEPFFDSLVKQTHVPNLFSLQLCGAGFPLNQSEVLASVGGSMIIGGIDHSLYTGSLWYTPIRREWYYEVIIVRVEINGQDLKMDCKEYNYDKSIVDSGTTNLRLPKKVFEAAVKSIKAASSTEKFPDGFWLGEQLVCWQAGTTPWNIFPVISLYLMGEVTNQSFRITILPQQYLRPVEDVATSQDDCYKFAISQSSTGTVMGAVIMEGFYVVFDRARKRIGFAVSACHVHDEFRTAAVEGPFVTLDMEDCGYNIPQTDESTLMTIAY
- assay-explanation: fluorescence anisotropy binding assay
Where no end group is shown, it is not given here.
observation-type: Kd (nM)

1) YPYFIPL (not fully specified (N-terminus, C-terminus)) [Molecule Y2] | 92
2) YPYFIPL (not fully specified (N-terminus, C-terminus)) [Molecule Y1 (YPYFIPL with C-terminal Alexa488)] | 57
3) YPYFIPL (not fully specified (N-terminus, C-terminus)) [Molecule Y4] | 62
4) YPYFIPL (not fully specified (N-terminus, C-terminus)) [Molecule Y3] | 48
